# System: S. aureus RN4220
# Measurement Description: growth inhibition call (relative growth <= 0.2)
# Test Context: 50 µM
Hit rate of the full screen: of about 39,000 compounds, about 500 (1.3%) were called active. Shown is part of a subset that was picked to be rich in actives.
Your reply should match one of these outcome classes. active, inactive

Here are 6 molecules together with their reported answers.
>>> group("CC(=CCn1c[n+](C)c2c(N)ncnc21)CCC1(C)C(C)CCC2(C)C(C)=CCCC21.[Cl-] (centres undefined)")
"active"
>>> group("O=C1C=C2C(=CCO[C@@H]2O)O1")
"inactive"
>>> group("O=[As]O[As]=O (centres undefined)")
"inactive"
>>> group("CCCC[C@@H](C)[C@@H](OC(=O)C[C@@H](CC(=O)O)C(=O)O)[C@H](C[C@@H](C)C[C@H](O)CCCC[C@@H](O)C[C@H](O)[C@H](C)N)OC(=O)C[C@@H](CC(=O)O)C(=O)O")
"inactive"
>>> group("CN(C)C(=O)CCC(=O)N1C[C@H]2C[C@@H]1CN2")
"inactive"
>>> group("CC(C)c1cc2c(c(O)c1O)C1(C(=O)O)CCCC(C)(C)C1CC2 (centres undefined)")
"inactive"

Turning now to a further molecule:
Given CC1OC(OC2C(O)C(O)C(O)C(O)C2O)C(N)CC1NC(=N)C(=O)O.Cl (centres undefined) , state the outcome it received in this test.
inactive

All values here come from the antibiotic and cytotoxicity screens of Wong et al. (2023).
